- Tested on: L1210 leukemia ip in BDF1 mice, survival T/C
- experimentalProtocol: NCI In Vivo Anticancer Drug Screen. Data for tumor model L1210 Leukemia (intraperitoneal) in B6D2F1 (BDF1) mice
- conditionContext: endpoint: mean survival time; dose: 100.0 mg/kg/injection; schedule: Q01DX001 (ip); vehicle: carboxymethylcellulose (CMC); higher = longer survival
- Procedure: The antitumor activity of compounds was measured in mice bearing transplantable tumors. Survival or tumor size were measured and the results are expressed as the measurement made in the treated group (T) divided by the measurement made in the vehicle treated control group (C). The tumor model used in this assay is L1210 Leukemia (intraperitoneal) in B6D2F1 (BDF1) mice
Toxic doses and inconclusive results are not listed.
measuredAttribute: T/C

Below: 5 compounds and their reported T/C.
compound	T/C
O=C(/C=C/c1ccc(Cl)cc1)CCN1CCC2CCC(C2)C1 (stereo not drawn)	95 % of control
Cc1ccc2c3c(c(=O)oc2c1)CCCC3	112 % of control
CCCCCCCCCCCCCCCNC1=C(C)C(=O)C(NCCCCCCCCCCCCCCC)=C(C)C1=O	93 % of control
CCc1ccc(N=Nc2ccc(-c3ccc(NC(C)=O)cc3)cc2)cc1	94 % of control
CCSC(=O)n1nc(Cl)c2cc([N+](=O)[O-])ccc21	93 % of control

Give T/C for each listed item.
1. CSc1cc2c(cc1N)Cc1ccccc1-2
2. CC(=O)CC(SCCSCCSC(CC(C)=O)c1ccccc1)c1ccccc1 (stereo not drawn)
3. COc1cccc(C2N(Cc3ccc(N(CCCl)CCCl)cc3C)CCCN2Cc2ccc(N(CCCl)CCCl)cc2C)c1O
4. CCc1ccc(N=Nc2c(F)c(F)c(N)c(F)c2F)cc1
5. CCOP(=O)(Nc1c(Cl)cc2c(c1Cl)Cc1cc([N+](=O)[O-])ccc1-2)OCC
6. c1nc(NCCc2cnc[nH]2)c2[nH]cnc2n1
7. CC1COCC(C)N1CCC(=O)Nc1ccc(S(=O)(=O)c2ccc(NC(=O)CCN3C(C)COCC3C)cc2)cc1 (stereo not drawn)

## Output
1: 98 % of control; 2: 89 % of control; 3: 120 % of control; 4: 100 % of control; 5: 100 % of control; 6: 95 % of control; 7: 107 % of control

---

- Test system: L1210 leukemia ip in BDF1 mice, survival T/C
- experimentalProtocol: NCI In Vivo Anticancer Drug Screen. Data for tumor model L1210 Leukemia (intraperitoneal) in B6D2F1 (BDF1) mice
- conditionContext: endpoint: mean survival time; dose: 400.0 mg/kg/injection; schedule: Q01DX001 (ip); vehicle: saline; higher = longer survival
Toxic doses and inconclusive results are not listed.
measuredAttribute: T/C

Below: 3 compounds and their reported T/C.
compound	assayValue
O=C(OC1COC(OC(=O)c2ccc([N+](=O)[O-])cc2)C(OC(=O)c2ccc([N+](=O)[O-])cc2)C1OC(=O)c1ccc([N+](=O)[O-])cc1)c1ccc([N+](=O)[O-])cc1 (stereo unspecified)	96 % of control
C/C(CNc1nc(N)nc(N)c1N=Nc1ccc(Cl)cc1)=N\NC(N)=O	94 % of control
COC(=O)C1OC1c1cc(Cl)cc(Cl)c1OC (stereo unspecified)	101 % of control

Give T/C for each listed item.
1. Clc1ncnc2c1ncn2C1CCCCO1 (stereo unspecified)
2. O=[N+]([O-])c1ccnc(NC2CCCCC2)c1
3. O=C1c2ccccc2-c2cc3ccccc3cc21
4. Nc1cc2c(c(Cl)c1Br)-c1ccccc1C2=O

## Output
102 % of control
96 % of control
103 % of control
94 % of control

Give T/C for each listed item.
1. CC(=O)C(=O)O
2. CC(C)=CC(=O)OC1C2C(CC(C)C3C(O)CC(=O)C13C)OC(=O)C2C (stereo unspecified)
3. O=Cc1cc(=O)[nH]c(NC(=O)C(Cl)Cl)n1

## Output
1. 87 % of control
2. 97 % of control
3. 89 % of control

## Input Please report the recorded T/C for c1ccc2c(c1)ncc1cccn12 .
## Output 103 % of control
